Data provenance is ChEMBL document CHEMBL1154168.

Test system Peroxisome proliferator-activated receptor gamma (Homo sapiens), EC50 listed for each of the compounds.
measured.metric: EC50 (nM)

O=C(O)C(Cc1ccccc1)Oc1ccc(CCc2ccccc2)cc1 (racemic)    860
O=C(O)C(Cc1ccccc1)Oc1ccc(CNc2ccccc2)cc1 (racemic)    9400
O=C(O)C(Cc1ccccc1)Oc1ccc(C#Cc2ccccc2)cc1 (racemic)    540
O=C(O)C(Cc1ccccc1)Oc1ccc(Oc2ccccc2)cc1 (racemic)    1210
O=C(O)[C@@H](Cc1ccccc1)Oc1ccc(Cc2ccccc2)cc1    5700

###

Reported pEC50 by item:
# target.or.test.system: Peroxisome proliferator-activated receptor alpha (Homo sapiens)
# Sequence (Q07869 whole entry, the tested form may be a part): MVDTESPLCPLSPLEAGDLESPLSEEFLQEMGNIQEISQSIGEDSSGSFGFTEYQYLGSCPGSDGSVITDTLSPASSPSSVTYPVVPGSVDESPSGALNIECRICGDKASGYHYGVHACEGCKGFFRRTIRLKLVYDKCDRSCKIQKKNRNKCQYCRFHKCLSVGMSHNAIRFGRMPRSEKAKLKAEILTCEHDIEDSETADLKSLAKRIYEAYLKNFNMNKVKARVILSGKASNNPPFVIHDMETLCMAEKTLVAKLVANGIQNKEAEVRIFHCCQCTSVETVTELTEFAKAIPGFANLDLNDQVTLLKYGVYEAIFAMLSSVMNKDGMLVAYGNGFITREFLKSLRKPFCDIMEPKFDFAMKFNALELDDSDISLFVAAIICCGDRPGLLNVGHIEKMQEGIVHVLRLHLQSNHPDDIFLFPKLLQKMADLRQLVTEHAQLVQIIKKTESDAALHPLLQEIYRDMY
# protocol.summary: Agonist activity at GAL4-tagged human PPARalpha ligand binding domain expressed in human HepG2 cells assessed as receptor transactivation by luciferase reporter gene assay
# Assay type: cell-based
# measurement.setup: read-out: EC50
pEC50: −log10 of the molar value.
measured.metric: pEC50

O=C(O)[C@H](Cc1ccccc1)Oc1ccc(Cc2ccccc2)cc1    7.94
O=C(O)C(Cc1ccccc1)Oc1ccc(C#Cc2ccccc2)cc1 (racemic)    5.87
O=C(O)C(Cc1ccccc1)Oc1ccc(CCCc2ccccc2)cc1 (racemic)    6.14
O=C(O)C(Cc1ccccc1)Oc1ccc(Cc2ccccc2)cc1 (racemic)    7.80
O=C(O)C(Cc1ccccc1)Oc1ccc(CCc2ccccc2)cc1 (racemic)    6.48
O=C(O)C(Cc1ccccc1)Oc1ccc(SCc2ccccc2)cc1 (racemic)    6.31
O=C(O)C(Cc1ccccc1)Oc1ccc(CNc2ccccc2)cc1 (racemic)    5.85
O=C(O)C(Cc1ccccc1)Oc1ccc(CSc2ccccc2)cc1 (racemic)    6.51
O=C(O)[C@@H](Cc1ccccc1)Oc1ccc(Cc2ccccc2)cc1    5.62
O=C(O)C(Cc1ccccc1)Oc1ccc(OCc2ccccc2)cc1 (racemic)    6.97
O=C(O)C(Cc1ccccc1)Oc1ccc(Oc2ccccc2)cc1 (racemic)    7.22
O=C(Cc1ccccc1)c1ccc(OC(Cc2ccccc2)C(=O)O)cc1 (racemic)    5.74
O=C(O)C(Cc1ccccc1)Oc1ccc(NCc2ccccc2)cc1 (racemic)    5.44
O=C(O)C(Cc1ccccc1)Oc1ccc(COc2ccccc2)cc1 (racemic)    6.22

###

# target.or.test.system: Peroxisome proliferator-activated receptor alpha (Homo sapiens)
# protocol.summary: Agonist activity at GAL4-tagged human PPARalpha ligand binding domain expressed in human HepG2 cells assessed as receptor transactivation by luciferase reporter gene assay relative to Wy-14643
# Assay type: cell-based
Reported Efficacy by item:
measured.metric: Efficacy

O=C(O)C(Cc1ccccc1)Oc1ccc(SCc2ccccc2)cc1 (racemic)    134%
O=C(O)C(Cc1ccccc1)Oc1ccc(C#Cc2ccccc2)cc1 (racemic)    36%
O=C(Cc1ccccc1)c1ccc(OC(Cc2ccccc2)C(=O)O)cc1 (racemic)    106%
O=C(O)C(Cc1ccccc1)Oc1ccc(CCCc2ccccc2)cc1 (racemic)    67%
O=C(O)C(Cc1ccccc1)Oc1ccc(CNc2ccccc2)cc1 (racemic)    120%
O=C(O)C(Cc1ccccc1)Oc1ccc(Cc2ccccc2)cc1 (racemic)    115%
O=C(O)[C@H](Cc1ccccc1)Oc1ccc(-c2ccccc2)cc1    116%
O=C(O)[C@@H](Cc1ccccc1)Oc1ccc(Cc2ccccc2)cc1    82%
O=C(O)C(Cc1ccccc1)Oc1ccc(CCc2ccccc2)cc1 (racemic)    86%

###

# target.or.test.system: Peroxisome proliferator-activated receptor alpha (Homo sapiens)
# protocol.summary: Agonist activity at GAL4-tagged human PPARalpha ligand binding domain expressed in human HepG2 cells assessed as receptor transactivation by luciferase reporter gene assay relative to Wy-14643
# Type: cell-based
measured.metric: Efficacy

O=C(O)C(Cc1ccccc1)Oc1ccc(Oc2ccccc2)cc1 (racemic)    126%
O=C(O)C(Cc1ccccc1)Oc1ccc(NCc2ccccc2)cc1 (racemic)    78%
O=C(O)C(Cc1ccccc1)Oc1ccc(COc2ccccc2)cc1 (racemic)    107%
O=C(O)C(Cc1ccccc1)Oc1ccc(CSc2ccccc2)cc1 (racemic)    92%
O=C(O)C(Cc1ccccc1)Oc1ccc(OCc2ccccc2)cc1 (racemic)    112%
